B1: KRT13 (parent)
chain: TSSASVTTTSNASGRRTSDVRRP

- Variants of: B1
- Assay protocol: protein stability index of a GFP-peptide fusion (GPS, HEK-293T) (PSI 1-6); higher = more stable;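 also: lentivirally expressed fusions sorted by FACS into six bins by GFP to DsRed ratio, PSI derived from sequencing read proportions per bin multiplied by bin number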
- Run conditions: c terminus: native
Heads up, the class ranges for protein stability index are interval 1: < 2; interval 2: ≥ 2 and < 3; interval 3: ≥ 3

{"Var": "S10T", "Assigned label": "interval 1"}
{"Var": "S18V", "Assigned label": "interval 3"}
{"Var": "N11P", "Assigned label": "interval 1"}
{"Var": "S3V", "Assigned label": "interval 1"}
{"Var": "R21N", "Assigned label": "interval 3"}

Task item: In plain terms, what class is T8A ?
Reply: interval 3

Task item: In plain terms, what class is P23W ?
Reply: interval 3

Task item: In plain terms, what class is A4L ?
Reply: interval 3
